# system name: androgen receptor (AR) (Homo sapiens, UniProt P10275, T878A)
# Construct: LNCaP cells were transiently transfected with the PSA (6.1 kb)-luciferase reporter for 24 h; endogenous in cells; host or cells: LNCaP
# Sequence (P10275 whole entry T878A): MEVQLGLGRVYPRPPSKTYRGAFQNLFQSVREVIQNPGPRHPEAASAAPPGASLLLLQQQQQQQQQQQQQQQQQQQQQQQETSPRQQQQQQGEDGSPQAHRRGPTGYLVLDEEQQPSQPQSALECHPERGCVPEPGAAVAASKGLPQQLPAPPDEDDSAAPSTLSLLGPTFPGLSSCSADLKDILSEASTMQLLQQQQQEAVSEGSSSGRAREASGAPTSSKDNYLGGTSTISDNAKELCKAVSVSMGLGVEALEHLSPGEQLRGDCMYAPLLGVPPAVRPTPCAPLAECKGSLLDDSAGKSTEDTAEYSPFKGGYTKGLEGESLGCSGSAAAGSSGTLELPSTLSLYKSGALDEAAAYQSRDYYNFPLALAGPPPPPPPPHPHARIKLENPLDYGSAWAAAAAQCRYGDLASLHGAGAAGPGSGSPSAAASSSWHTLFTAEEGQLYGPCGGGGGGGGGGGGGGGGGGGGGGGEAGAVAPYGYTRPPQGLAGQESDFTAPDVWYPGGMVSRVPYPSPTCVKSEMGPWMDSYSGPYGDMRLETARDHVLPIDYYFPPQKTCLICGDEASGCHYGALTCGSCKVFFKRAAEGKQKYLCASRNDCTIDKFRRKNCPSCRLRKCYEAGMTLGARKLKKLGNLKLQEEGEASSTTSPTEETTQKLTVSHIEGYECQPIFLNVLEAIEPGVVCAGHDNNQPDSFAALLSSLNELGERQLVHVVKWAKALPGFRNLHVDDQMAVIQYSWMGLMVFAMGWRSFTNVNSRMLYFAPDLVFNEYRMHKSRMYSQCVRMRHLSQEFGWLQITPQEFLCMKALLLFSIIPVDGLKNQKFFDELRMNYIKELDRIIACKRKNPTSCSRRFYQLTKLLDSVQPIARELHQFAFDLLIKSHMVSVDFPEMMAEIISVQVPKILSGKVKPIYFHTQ
# assay overview: Androgen-induced PSA (6.1 kb)-luciferase reporter assay in LNCaP cells
# Type: cell-based
# condition: LNCaP cells transfected with PSA (6.1 kb)-luciferase reporter, R1881 1 nM, 24 h; read-out: PSA-Luc IC50 Range
pIC50: −log10 of the molar value.
reported metric: pIC50

Please review the entries below; each comes with its answer.
[
  {
    "compound": "CC(Oc1ccc(C(C)(C)c2cc(Cl)c(OCCCl)c(C#N)c2)cc1)c1coc(S(C)(=O)=O)n1 (stereo not shown)",
    "pIC50": "> 6.30"
  },
  {
    "compound": "CC(C)(c1ccc(OCc2nnc(S(C)(=O)=O)o2)cc1)c1cc(Cl)c(OCCCCl)c(Cl)c1",
    "pIC50": "< 5.70"
  },
  {
    "compound": "CC(C)(c1ccc(OCc2nnccc2NS(C)(=O)=O)cc1)c1cc(Cl)c(OCCCl)c(C#N)c1",
    "pIC50": "5.70 to 6.30"
  },
  {
    "compound": "CCS(=O)(=O)Nc1nccc(COc2ccc(C(C)(C)c3cc(Cl)c(OCCCl)c(C#N)c3)cc2)n1",
    "pIC50": "5.70 to 6.30"
  },
  {
    "compound": "CC(C)(c1ccc(OCc2ccnc(C#N)n2)cc1)c1cc(Cl)c(OCCCl)c(C#N)c1",
    "pIC50": "5.70 to 6.30"
  }
]

Param item = CC(C)(c1cc(Cl)c(OCCCl)c(Cl)c1)c1ccc(N2C(=O)N(S(C)(=O)=O)C(C)(C)C2=O)c(C#N)c1 ; retrieve measured pIC50.
< 5.70

Subsequent entry: CC(=O)Nc1nccc(C(C)Oc2ccc(C(C)(C)c3cc(Cl)c(OCCCl)c(C#N)c3)cc2)n1 (stereo not shown)
5.70 to 6.30

====

IC50 reference
# system name: LBD of glucocorticoid receptor (GR) fused to DBD of GAL4 (Homo sapiens)
# Sequence (P04150 524-758 limits assumed): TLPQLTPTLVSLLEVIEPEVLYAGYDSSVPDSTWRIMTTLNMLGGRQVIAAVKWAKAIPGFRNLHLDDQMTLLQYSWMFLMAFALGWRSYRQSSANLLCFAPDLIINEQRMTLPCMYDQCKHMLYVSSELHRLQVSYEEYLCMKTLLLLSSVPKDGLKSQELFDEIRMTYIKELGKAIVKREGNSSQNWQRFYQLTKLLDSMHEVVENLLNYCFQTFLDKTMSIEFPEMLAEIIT
# assay overview: LBD-expressing reporter assay (GeneBLAzer), GR LBD
# Assay type: cell-based
# condition: inhibition of maximal activity attained with agonist; read-out: Steroid Receptor LBD IC50 (μM) GR
# From the text: This assay uses cells that stably express a chimera fusion protein comprising the LBD of a steroid hormone receptor fused to the DNA-binding domain (DBD) of GAL4 along with beta-lactamase reporter under transcriptional control of an upstream activator sequence (UAS). When agonist binds to the LBD of the GAL4 (DBD)-steroid hormone (LBD) chimera fusion protein, the protein binds to the UAS, resulting in expression of beta-lactamase. […]

[
  {
    "compound": "CC(C)(c1ccc(OCc2ocnc2S(C)(=O)=O)cc1)c1cc(Cl)c(OCCCl)c(C#N)c1 [Compound A28]",
    "reported metric": "IC50",
    "obs value": "> 10 µM"
  },
  {
    "compound": "CC(C)(c1ccc(OC[C@H](O)CO)cc1)c1ccc(OC[C@H](O)CCl)cc1 [EPI-002, reference compound]",
    "reported metric": "IC50",
    "obs value": "> 10 µM"
  },
  {
    "compound": "CC(C)(c1ccc(OCc2ocnc2S(C)(=O)=O)cc1)c1cc(Cl)c(OCCCl)c(Cl)c1 [Compound A13]",
    "reported metric": "IC50",
    "obs value": "> 10 µM"
  }
]

Param item = CC(C)(c1ccc(OCc2ccnc(NS(C)(=O)=O)n2)cc1)c1cc(Cl)c(OCCCl)c(Cl)c1 [Compound A74] ; retrieve measured IC50.
9.51 µM

Numbers sourced from patent US11059795B2.
